Reference source: patent US20220073604A1

Recorded Kd for the following binders
Biological target: T1, eukaryotically produced human IL-6 (human, UniProt P05231 30-212)
T1 construct: also called eukIL-6; Euk IL-6
Test: SPR; periplasmic fraction

binder	Kd [nM]
Fab 47C2 (Fab, V domains shown, VL-shuffled Fab of 29B11, periplasmic fraction; also called 47C2 (R4)) VH: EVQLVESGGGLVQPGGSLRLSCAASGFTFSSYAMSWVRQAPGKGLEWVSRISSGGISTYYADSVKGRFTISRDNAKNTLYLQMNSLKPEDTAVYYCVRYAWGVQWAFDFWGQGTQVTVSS VL: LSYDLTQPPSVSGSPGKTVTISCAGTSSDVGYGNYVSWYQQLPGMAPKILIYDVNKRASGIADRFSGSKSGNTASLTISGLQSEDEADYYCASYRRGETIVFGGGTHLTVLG	0.282
Fab 55H1 (Fab, V domains shown, VL-shuffled Fab of 29B11, periplasmic fraction; also called 55H1c) VH: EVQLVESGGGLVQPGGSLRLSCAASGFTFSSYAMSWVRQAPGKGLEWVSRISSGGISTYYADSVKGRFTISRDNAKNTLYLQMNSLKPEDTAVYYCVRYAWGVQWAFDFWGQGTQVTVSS VL: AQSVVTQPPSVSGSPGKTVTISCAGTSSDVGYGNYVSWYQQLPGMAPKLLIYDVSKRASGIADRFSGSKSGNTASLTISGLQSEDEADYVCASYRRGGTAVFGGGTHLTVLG	0.0977
Fab 55C1 (Fab, V domains shown, VL-shuffled Fab of 29B11, periplasmic fraction; also called 55C1a) VH: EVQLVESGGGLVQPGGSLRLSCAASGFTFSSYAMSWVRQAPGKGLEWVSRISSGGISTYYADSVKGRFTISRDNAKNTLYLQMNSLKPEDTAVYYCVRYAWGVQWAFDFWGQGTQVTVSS VL: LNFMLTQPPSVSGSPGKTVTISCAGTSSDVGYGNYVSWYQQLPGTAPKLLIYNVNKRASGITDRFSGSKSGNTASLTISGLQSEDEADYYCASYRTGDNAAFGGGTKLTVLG	0.18
Fab 29B11 (Fab, V domains shown, Fab) VH: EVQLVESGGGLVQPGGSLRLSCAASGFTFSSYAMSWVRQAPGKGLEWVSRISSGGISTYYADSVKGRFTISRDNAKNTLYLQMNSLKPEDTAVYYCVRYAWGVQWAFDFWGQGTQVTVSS VL: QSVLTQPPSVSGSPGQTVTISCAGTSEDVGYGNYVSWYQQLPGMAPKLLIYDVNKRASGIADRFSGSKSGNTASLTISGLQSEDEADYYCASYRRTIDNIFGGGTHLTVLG	0.546
Fab 55E2 (Fab, V domains shown, VL-shuffled Fab of 29B11, periplasmic fraction; also called 55E2b) VH: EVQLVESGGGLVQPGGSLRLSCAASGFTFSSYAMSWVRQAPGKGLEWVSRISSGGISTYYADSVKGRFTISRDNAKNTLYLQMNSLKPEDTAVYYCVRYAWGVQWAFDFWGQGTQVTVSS VL: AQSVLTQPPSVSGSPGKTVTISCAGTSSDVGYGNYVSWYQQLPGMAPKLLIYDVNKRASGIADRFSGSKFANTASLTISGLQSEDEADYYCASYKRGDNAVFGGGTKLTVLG	0.158
